Test system: male CD rats
TEST DESCRIPTION: Adjuvant-Induced Developing Arthritis Assay
Assay type: in vivo
REPORTED CONDITIONS: Rattus norvegicus, po, 336 h; 25 mg/kg orally once daily, 14 days from adjuvant injection; non-injected hind paw volume
ASSAY METRIC: inhibition in vivo at 25 mg/kg (%)

>>> df
                                 cpd_smiles  recorded_measurement
0        O=S(=O)(CC(F)(F)F)c1nc2ccccc2[nH]1                    52
1     Cc1ccc2[nH]c(S(=O)(=O)CC(F)(F)F)nc2c1                    52
2  O=S(=O)(CC(F)(F)F)c1nc2cc(Cl)c(Cl)cc2[nH]1                    24
3    CCc1ccc2[nH]c(S(=O)(=O)CC(F)(F)F)nc2c1                    34
4    Cc1cc2nc(S(=O)(=O)CC(F)(F)F)[nH]c2cc1C                    18
5    O=S(=O)(CC(F)(F)F)c1nc2cc(Cl)ccc2[nH]1                    28
6     O=S(=O)(CC(F)(F)F)c1nc2cc(F)ccc2[nH]1                    43

Every entry's value here was drawn from patent US4608381A.
